experiment: logP determination (neutral / HCOOH); conditions: HCOOH (formic acid), logP (HCOOH), HCOOH
For each of the molecules below, state its chromatographic logP.
Reply: number alone, nothing else.

Inquiry: Which chromatographic logP value belongs to Brc1cccc(-c2cnn(-c3cccnc3)c2)n1 ?
Reply text: 2.18

Inquiry: Which chromatographic logP value belongs to Cc1cc(C)n(-c2cccc(-c3cnn(-c4cccnc4)c3)n2)n1 ?
Reply text: 2.64

Inquiry: Which chromatographic logP value belongs to c1cncc(-n2cc(-c3ccncn3)cn2)c1 ?
Reply text: 0.89

Inquiry: Which chromatographic logP value belongs to Nc1cccc(-c2cnn(-c3cncc(F)c3)c2)n1 ?
Reply text: 0.64

Inquiry: Which chromatographic logP value belongs to COc1ccc(-c2cnn(-c3cccnc3)c2)cc1 ?
Reply text: 2.12

Inquiry: Which chromatographic logP value belongs to FC(F)(F)c1cccc(-n2ccc(-c3cnn(-c4cccnc4)c3)n2)n1 ?
Reply text: 3.18

Inquiry: Which chromatographic logP value belongs to c1cncc(-n2cc(-c3cccc(-c4nc[nH]n4)n3)cn2)c1 ?
Reply text: 1.14

Inquiry: Which chromatographic logP value belongs to c1cncc(-n2cc(-c3cc[nH]n3)cn2)c1 ?
Reply text: 0.79

Inquiry: Which chromatographic logP value belongs to Ic1cncc(-n2cc(-c3cccc(-c4ncccn4)n3)cn2)c1 ?
Reply text: 2.37

Inquiry: Which chromatographic logP value belongs to COc1cccc(-c2cnn(-c3cccnc3)c2)n1 ?
Reply text: 2.12

Inquiry: Which chromatographic logP value belongs to Clc1cccnc1-n1ccc(-c2cnn(-c3cccnc3)c2)n1 ?
Reply text: 1.81

Inquiry: Which chromatographic logP value belongs to c1cnc(-c2cc[nH]n2)nc1 ?
Reply text: 0.1

Inquiry: Which chromatographic logP value belongs to N#CCNC(=O)c1ccc(-c2cnn(-c3cccnc3)c2)nc1 ?
Reply text: 0.95

Inquiry: Which chromatographic logP value belongs to c1cncc(-n2cc(-c3cccc(-n4nccn4)n3)cn2)c1 ?
Reply text: 1.63

Inquiry: Which chromatographic logP value belongs to FC(F)(F)c1ccn(-c2cnn(-c3cccnc3)c2)n1 ?
Reply text: 2.27

Inquiry: Which chromatographic logP value belongs to c1cncc(-n2cc(-c3nccs3)cn2)c1 ?
Reply text: 1.32

Inquiry: Which chromatographic logP value belongs to c1cncc(-n2cc(-c3cccc(C4OCC5(CC5)CO4)n3)cn2)c1 ?
Reply text: 1.97

Inquiry: Which chromatographic logP value belongs to O=C1CCCN1c1cccc(-c2cnn(-c3cccnc3)c2)n1 ?
Reply text: 1.86

Data credit: patent US9066518B2
